- Tested on: HT-29
- methodDescription: Cytotoxicity against human HT-29 cells assessed as cell viability after 48 hrs by MTT assay
- Type: functional, cell-based
- assaySetup: HT-29, 48 h
Quick reference: pIC50 of the listed items.
Hey, just a heads up that pIC50 is the negative log base 10 of the concentration in molar.

| smi | propertyName | quantitativeResult |
| --- | --- | --- |
| O=C(O)CCCc1ccc(N(CCCl)CCCl)cc1 | pIC50 | 4.15 |

Then there is this molecule:
The reported value for CCCCCCCCCCCCCCCCCCOC[C@@H](O)COP(=O)([O-])OCC[N+](C)(C)C in terms of pIC50 is 4.74
